Tested on: HEK-293T
Test: Incucyte cell viability with HEK293T; further: filed as whole numbers so only -1 and 0 and 1 occur
Type: toxicity, cell-based
Conditions: human, 24 h, 10 µM, compound concentration 10 uM, replicate number 1, timepoint 24 hours
As shown below, each of these compounds has a reported Growth Rate value.
property-measured: Growth Rate

compound="CCCCc1nc(Cl)c(CO)n1Cc1ccc(-c2ccccc2-c2nn[nH]n2)cc1 [LOSARTAN]" quantitative_readout=1
compound=O=C(O)CC1CCC2(CC1)CCN(c1cc(OC(F)(F)F)ccc1Cl)CC2 quantitative_readout=0
compound=C[C@H]1CCCN1Cc1nc2cc(NC(=O)c3ccc4cnccc4c3)ccc2[nH]1 quantitative_readout=1
compound=COc1cc2c(Nc3ccc(NC(=O)c4ccccc4)cc3)ncnc2cc1OCCCN1CCOCC1 quantitative_readout=0
compound=Cc1cc(C)c(N)c(C#Cc2cccc(F)c2)n1.Cl quantitative_readout=0
compound=COc1ccc(NS(=O)(=O)c2sc3ccc(Cl)cc3c2C)cc1N1CCNCC1.Cl quantitative_readout=0
compound="CN1C(=O)[C@@H](N2CCc3c(nn(Cc4ccccc4)c3Br)C2=O)COc2ccccc21 [TP-030-2]" quantitative_readout=1
compound="C[C@@H]1CN(c2cc(-c3nn(C)c4ccc(OC5(C)CC5)cc34)ncn2)C[C@H](C)O1 [MLi-2-NC]" quantitative_readout=0
compound="N#Cc1ccccc1OCC(O)CNCCNC(=O)Nc1ccccc1 (stereo unspecified) [ICI-89406]" quantitative_readout=1
compound="CO[C@@H]1COCC[C@@H]1N[C@@H]1CC[C@@](C(=O)N2CCc3ncc(C(F)(F)F)cc3C2)(C(C)C)C1 [MK-0812]" quantitative_readout=1
compound=COc1cc2c(cc1-c1c(C)noc1C)ncc1[nH]c(=O)n([C@H](C)c3ccccn3)c12 quantitative_readout=0
compound="CO[C@H]1/C=C/O[C@@]2(C)Oc3c(C)c(O)c4c(O)c(c(/C=N/N5CCN(C)CC5)c(O)c4c3C2=O)NC(=O)/C(C)=C\\C=C\\[C@H](C)[C@H](O)[C@@H](C)[C@@H](O)[C@@H](C)[C@H](OC(C)=O)[C@@H]1C [RIFAMPIN]" quantitative_readout=1
compound="CN1CC(=O)N=C1NC(=O)Nc1cccc(Cl)c1 [FENOBAM ANHYDROUS]" quantitative_readout=1
compound=CN(C)C(=O)c1ccc(-c2cc(C(=O)N(C)C3CCCC3)no2)cc1O quantitative_readout=1
compound="CCCCC[C@H](O)/C=C/[C@@H]1[C@@H](C/C=C\\CCCC(=O)O)[C@@H](O)C[C@H]1O [DINOPROST]" quantitative_readout=0
compound=N#Cc1c(N)nc(SCC(N)=O)c(C#N)c1-c1ccc(OCC2CC2)cc1 quantitative_readout=0

* * *

Test system: U2OS
Assay: Multiplex assay against U2OS
Assay type: toxicity, cell-based
Details: human, 12 h, 10 µM, compound concentration 10 uM, replicate 2
property-measured: Total Cell Count

molecule=COc1ccc(NS(=O)(=O)c2sc3ccc(Cl)cc3c2C)cc1N1CCNCC1.Cl target_of_assay=U2OS quantitative_readout=49
molecule=Cl.Cl.NC1(c2ccc(-c3nc4ccn5c(=O)[nH]nc5c4cc3-c3ccccc3)cc2)CCC1 target_of_assay=U2OS quantitative_readout=160
molecule=CNc1oc(-c2cccc3ccccc23)nc1C#N target_of_assay=U2OS quantitative_readout=92
molecule="CNC(=O)c1cc(Oc2ccc(NC(=O)Nc3cc(C(C)(C)C)nn3-c3ccc4ncccc4c3)c(F)c2)ccn1 [REBASTINIB]" target_of_assay=U2OS quantitative_readout=111
molecule=Nc1nc2c(c(N3CCNCC3)n1)CCC1=C2[C@@H]2CCCC[C@@H]2O1 target_of_assay=U2OS quantitative_readout=106
molecule=COc1cc2c(Nc3ccc(NC(=O)c4ccccc4)cc3)ncnc2cc1OCCCN1CCOCC1 target_of_assay=U2OS quantitative_readout=115
molecule=COc1cc2c(NC3CCN(C(C)C)CC3)nc(N3CCC(F)(F)CC3)nc2cc1OCCCN1CCCC1 target_of_assay=U2OS quantitative_readout=89
